# Read-out: Thyroid Hormone Responsive (THRSP), THRSP (gene 7069)
# ASSAY_PROTOCOL: LTEA_HepaRG_THRSP: Life Technologies and Expression Analysis (LTEA) Assay for Thyroid Hormone Responsive (THRSP) using HepaRG (AID 2283536)
# SETTINGS: mRNA level, 48 h; actives raise or lower the signal
Active and inactive are the calls of the source. The calls were made as follows: active = hit-call score of the fitted dose curve at least 0.9, where 1 is the maximum; inactive = score below 0.9.
// one of active, inactive, no free text

A selection of reference data follows.
compound=CCCCc1ccccc1 label_class=inactive
compound=CCOS(=O)(=O)OCC label_class=inactive

## Task Answer briefly: the call reported for CC(Cl)(Cl)C(=O)O in this assay.
## Result inactive

## Task What about this compound? CCC(C)(C)c1ccc(O)cc1
## Result inactive

## Task What about this compound? O=C(O)C1C(C(=O)O)C2(Cl)C(Cl)=C(Cl)C1(Cl)C2(Cl)Cl (stereo not drawn)
## Result inactive

## Task What about this compound? Cc1ccc([N+](=O)[O-])cc1C
## Result inactive

## Task What about this compound? [N-]=[N+]=[N-]
## Result active

## Task What about this compound? Cc1cccc(N)c1
## Result inactive

====

# ASSAY_PROTOCOL: BSK_3C_Proliferation: Cell Proliferation Assessment in the BioMAP Diversity Plus: 3C Assay (AID 2283006)
# SETTINGS: primary human endothelial cells (HUVEC)
Calls of active or inactive are those of the source. How the source made its calls: active means hit-call score of the fitted dose curve at least 0.9, where 1 is the maximum; inactive means score below 0.9.
// one of 1.0 for active, 0.0 for inactive, no free text

compound=ClC(Cl)(Cl)c1ccccc1 label_class=0.0
compound="CC(Cl)CN(C)C (centres undefined)" label_class=0.0
compound=CCCN(CCC)c1c([N+](=O)[O-])cc(C(C)C)cc1[N+](=O)[O-] label_class=1.0

## Task Answer briefly: the call reported for O=C(O)C1C(C(=O)O)C2(Cl)C(Cl)=C(Cl)C1(Cl)C2(Cl)Cl (centres undefined) in this assay.
## Result 0.0

## Task What about this compound? c1ccc(OP(Oc2ccccc2)Oc2ccccc2)cc1
## Result 0.0

## Task What about this compound? Cc1ccc(N)cc1N
## Result 0.0

## Task What about this compound? c1ccc2c(c1)Nc1ccccc1S2
## Result 1.0

## Task What about this compound? CCOP(=S)(OCC)SCSc1ccc(Cl)cc1
## Result 1.0

====

# ASSAY_PROTOCOL: BSK_3C_uPAR: BioMAP Diversity Plus: 3C Assay for Urokinase-type plasminogen activator receptor (uPAR) Biomarker Activity (AID 2282998)
# SETTINGS: BioMAP 3C HUVEC, uPAR biomarker ELISA; actives raise or lower the signal
Active and inactive are the calls of the source. Rule for the calls: active = hit-call score of the fitted dose curve at least 0.9, where 1 is the maximum; inactive = score below 0.9.
// one of active, inactive, no free text

molecule=CCOS(=O)(=O)OCC label_class=inactive
molecule=Cc1ccc(N)cc1N label_class=inactive
molecule="CCCCC(CC)COC(=O)c1c(Br)c(Br)c(Br)c(Br)c1C(=O)OCC(CC)CCCC (centres undefined)" label_class=inactive
molecule="COC(=O)C(F)(F)C(F)(F)OC(F)(C(F)(F)F)C(F)(F)OC(F)=C(F)F (centres undefined)" label_class=inactive
molecule=O=C(O)C(Cl)Cl label_class=inactive
molecule=ClC(Cl)c1ccccc1 label_class=inactive
molecule=O=c1ssc(Cl)c1Cl label_class=active
molecule=CN(C)C(=O)Cl label_class=inactive
molecule=O=[N+]([O-])c1ccccc1 label_class=inactive
molecule=C=CC(=O)OCC(F)(F)C(F)F label_class=inactive

## Task Answer briefly: the call reported for Nc1cc2c3c(c1)C(c1ccccc1)=N[C@@H](NC(=O)c1cccnc1)C(=O)N3CC2 in this assay.
## Result inactive

## Task What about this molecule? Cc1ccc([N+](=O)[O-])cc1C
## Result inactive

## Task What about this molecule? COP(N)(=S)OC
## Result inactive

## Task What about this molecule? COP(=O)(CCC(=O)NCO)OC
## Result inactive

Where these numbers come from: PubChem BioAssay (EPA / NIEHS)
